B1: ZNF449 (parent)
chain: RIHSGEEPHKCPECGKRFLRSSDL

Variants of: B1
Experiment Notes: protein stability index of a GFP-peptide fusion (GPS, HEK-293T) (PSI 1-6); higher = more stable;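 note: lentivirally expressed fusions sorted by FACS into six bins by GFP to DsRed ratio, PSI derived from sequencing read proportions per bin multiplied by bin number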
Condition Set: c terminus: a fixed tail appended
Below: a set of entries, each annotated with reported protein stability index.
# output: bare number, no unit

These recorded examples may help you get a feel for the data.
Var: D23H
Assay Result: 3.41
//
Var: K10M
Assay Result: 3.17

Problem: Supply reported protein stability index belonging to this variant: S21N
Solution: 3.56

Problem: Provide measured protein stability index value, entry: G5K
Solution: 3.41

Problem: Please look at this variant and report its protein stability index: R1N
Solution: 3.72

Problem: Note protein stability index for the variant shown: R17Y
Solution: 3.58

Problem: For the variant L19F , give its reported protein stability index.
Solution: 3.26

Problem: Complete the entry with protein stability index for S21M
Solution: 2.24

Problem: Answer with reported protein stability index of D23Q
Solution: 1.86

Problem: Annotate the variant L19H with its measured protein stability index.
Solution: 3.41

Problem: Using known records, supply protein stability index for G15F
Solution: 3.48

Problem: Tell me protein stability index reported for S4R
Solution: 2.54

Problem: Given C11N , respond with its protein stability index.
Solution: 4.57
